These entries and their values trace back to ChEMBL document CHEMBL6083215.

A collection of compounds and their measured GI50
# System: OVCAR-5
# PROTOCOL: Growth inhibition of human OVCAR-5 cells
# Type: functional

Consider the following illustrative entries.
Recorded GI50 for COc1cccc2c1C(=O)c1c(O)c3c(c(O)c1C2=O)C[C@@](O)(C(=O)CO)C[C@@H]3O[C@H]1C[C@H](N)[C@H](O)[C@H](C)O1 [DOXORUBICIN] with OVCAR-5, please?
120 nM

What GI50 appears in the records for this compound with OVCAR-5? CCCCCCCC/C=C(/C)C[C@]1(C)C[C@H](C)[C@@H](CC(=O)O)OO1
600 nM

Record CCCCCCCCC/C=C(/C)C[C@]1(C)C[C@H](C)[C@@H](CC(=O)O)OO1 : what is its GI50 with OVCAR-5?
980 nM

As a next step, examine the compound that follows.
# query: GI50 | item CCCCCCCCC/C=C(/C)CC(C)(O)CC(C)C(O)CC(=O)OC (centres undefined) | system: OVCAR-5
> 100000 nM
